Provide the reported IC50 of each item.
- Assayed system: PLK4 (Homo sapiens, UniProt O00444)
- Sequence (O00444 1-970): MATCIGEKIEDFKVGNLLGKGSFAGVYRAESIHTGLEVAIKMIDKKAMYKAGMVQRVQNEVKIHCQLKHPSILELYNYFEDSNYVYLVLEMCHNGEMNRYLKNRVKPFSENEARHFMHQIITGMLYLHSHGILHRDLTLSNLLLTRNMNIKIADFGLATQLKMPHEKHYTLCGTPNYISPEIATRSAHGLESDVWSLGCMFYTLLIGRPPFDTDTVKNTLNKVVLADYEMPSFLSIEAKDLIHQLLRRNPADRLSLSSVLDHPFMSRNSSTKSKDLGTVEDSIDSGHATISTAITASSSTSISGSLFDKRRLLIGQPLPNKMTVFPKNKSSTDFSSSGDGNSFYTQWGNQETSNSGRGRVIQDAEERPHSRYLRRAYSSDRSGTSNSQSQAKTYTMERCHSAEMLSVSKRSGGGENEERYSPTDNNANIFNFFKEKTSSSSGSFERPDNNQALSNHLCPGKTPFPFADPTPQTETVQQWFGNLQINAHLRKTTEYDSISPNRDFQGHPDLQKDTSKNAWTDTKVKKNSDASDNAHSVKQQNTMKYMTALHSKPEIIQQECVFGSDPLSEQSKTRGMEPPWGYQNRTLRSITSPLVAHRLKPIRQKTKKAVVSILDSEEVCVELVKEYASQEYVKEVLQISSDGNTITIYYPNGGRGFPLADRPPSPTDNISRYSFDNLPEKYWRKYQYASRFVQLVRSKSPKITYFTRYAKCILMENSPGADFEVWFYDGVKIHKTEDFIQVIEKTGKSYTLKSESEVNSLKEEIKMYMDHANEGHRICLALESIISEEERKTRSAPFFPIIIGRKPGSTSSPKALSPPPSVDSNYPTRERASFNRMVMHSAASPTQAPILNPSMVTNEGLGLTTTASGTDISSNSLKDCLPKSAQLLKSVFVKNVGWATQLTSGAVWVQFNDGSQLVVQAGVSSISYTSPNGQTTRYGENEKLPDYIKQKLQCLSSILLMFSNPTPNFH
- Test protocol: PLK4 NanoBRET target engagement assay
- Experimental setup: HEK293 T cells transfected with PLK4 NanoLuc fusion vector; K-5 tracer; 2 hrs incubation
Please give a number only; it is taken to be in nM.

Request: Please give the measured IC50 for this compound: `CN(c1nc(Nc2cc(C3CC3)[nH]n2)c(C2CC2)c(-c2cn(C)c(C#N)n2)n1)c1c(F)cc(S(C)(=O)=O)cc1F`
Response: 6

Request: Which IC50 value is on record for `Cc1cc(Nc2nc(N(C)c3ccc(S(C)(=O)=O)cc3F)nc(N3CCOc4ccncc43)c2C2CC2)n[nH]1` ?
Response: 160

Request: GET /values?readout=IC50&item= `Cc1cc(Nc2nc(N(C)c3c(F)cc(S(C)(=O)=O)cc3F)nc(N3CCC[C@@H]3C#N)c2C2CC2)n[nH]1`
Response: 33

Request: What does the data say about its IC50? Entry: `Cc1cc(Nc2nc(N(C)c3c(F)cc(S(C)(=O)=O)cc3F)nc(-c3cnn(CC(C)(C)O)c3C)c2C2CC2)n[nH]1`
Response: 8

###

Provide the reported IC50 of each item.
- Assayed system: PLK4 (Homo sapiens, UniProt O00444)
- Construct: expressed in transfected cells; host or cells: HEK293 T cells (ATCC CRL-3216)
- Test protocol: PLK4 NanoBRET target engagement assay
- Format: binding
- Experimental setup: HEK293 T cells transfected with PLK4 NanoLuc fusion vector; K-5 tracer; 2 hrs incubation
Write the value in nM as a bare number.

Request: If you can, please state the reported IC50 value of `COc1c(Nc2cc(C)[nH]n2)nc(Sc2ccc(S(C)(=O)=O)cc2F)c(N)c1-c1cnn(C)c1` .
Response: 840

Request: Which IC50 value is on record for `COc1c(Nc2cc(C)[nH]n2)nc(N(C)c2ccc(S(=O)(=O)C(C)(C)C)cc2F)nc1-c1cnn(C)c1` ?
Response: 46

Request: Request the reported IC50 associated with `Cc1cc(Nc2nc(N(C)c3ccc(S(C)(=O)=O)cc3F)nc(-c3cnnn3C)c2C2CC2)n[nH]1`
Response: 180

Request: Need IC50 of `Cc1cc(Nc2nc(N(C)c3ccc(S(C)(=O)=O)cc3F)nc(-c3cn(C(C)C)cn3)c2C2CC2)n[nH]1` , thanks.
Response: 17

###

- Assayed system: PLK4 (Homo sapiens)
- Test protocol: PLK4 NanoBRET target engagement assay
- Experimental setup: HEK293 T cells transfected with PLK4 NanoLuc fusion vector; K-5 tracer; 2 hrs incubation
Parameter: IC50 (nM)
# output: bare number, implied unit nM

Request: Look up IC50 for this compound: `Cc1cc(Nc2nc(N(C)c3c(F)cc(S(C)(=O)=O)cc3F)nc(N3CCc4c(ncn4C)C3)c2C2CC2)n[nH]1`
Response: 14

Request: Dear colleague, I am looking for the recorded IC50 of the following compound: `Cc1cc(Nc2nc(N(C)c3c(F)cc(S(C)(=O)=O)cc3F)nc(N3CCc4ncn(C)c4C3)c2C2CC2)n[nH]1`
Response: 6

Request: Any idea what IC50 was measured for `CC(=O)N1CCC(c2cc(F)c(N(C)c3nc(Nc4cc(C)[nH]n4)c(C4CC4)c(-c4cn(C)cn4)n3)c(F)c2)CC1` ?
Response: 46

Request: Consider the compound shown here: `Cc1cc(Nc2nc(N(C)c3c(F)cc(S(C)(=O)=O)cc3F)nc(-c3nc(C)[nH]c3C)c2C2CC2)n[nH]1` What is its recorded IC50?
Response: 41

Request: Item under review: `[2H]C([2H])([2H])n1cc(-c2nc(N(C)c3c(F)cc(S(C)(=O)=O)cc3F)nc(Nc3cc(C)[nH]n3)c2C2CC2)c(C)n1` . Reported IC50?
Response: 5

Request: Using the record for `COc1c(Nc2cc(C)[nH]n2)nc(N(C)c2ccc(S(C)(=O)=O)cc2F)nc1-c1cnn(C)c1` , report its IC50.
Response: 53

Request: Consider the compound shown here: `Cc1cc(Nc2nc(N(C)c3c(F)cc(S(C)(=O)=O)cc3F)nc(-c3cn(C(F)F)cn3)c2C2CC2)n[nH]1` What is its recorded IC50?
Response: 6

Request: Would you kindly share the measured IC50 for `CCc1cc(Nc2nc(N(C)c3c(F)cc(S(C)(=O)=O)cc3F)nc(-c3cnn(C)c3)c2C2CC2)n[nH]1` ?
Response: 5

Request: Report IC50 for `Cc1cc(Nc2nc(N(C)c3c(F)cc(S(C)(=O)=O)cc3F)nc(-c3cn(C)nc3C(=O)N(C)C)c2C2CC2)n[nH]1` please.
Response: 48

Request: # IC50 lookup, item `Cc1cc(Nc2nc(N(C)c3cc(F)c(S(C)(=O)=O)cc3F)nc(-c3ccn(C)n3)c2C2CC2)n[nH]1`
Response: 18

Request: I would be grateful if you could share the reported IC50 for `Cc1cc(Nc2nc(N(C)c3c(F)cc(S(C)(=O)=O)cc3F)nc(-c3cc(CO)n(C)n3)c2C2CC2)n[nH]1` .
Response: 11

Request: Looking for the measured IC50 of `COc1c(-c2cnn(C)c2)cc(Sc2ccc(S(C)(=O)=O)cc2F)nc1Nc1cc(C)[nH]n1` , can you help?
Response: 53

Request: Please give the measured IC50 for this compound: `Cc1cc(Nc2nc(N(C)c3c(F)cc(S(C)(=O)=O)cc3F)nc(-c3cn(C4COC4)nc3C)c2C2CC2)n[nH]1`
Response: 4

Request: Please report the recorded IC50 for COC(C)c1nc(-c2nc(N(C)c3c(F)cc(S(C)(=O)=O)cc3F)nc(Nc3cc(C)[nH]n3)c2C2CC2)cn1C (stereo not drawn) .
Response: 10

Request: Which IC50 is listed for `Cc1cc(Nc2nc(N(C)c3c(F)cc(S(C)(=O)=O)cc3F)nc(-c3nn(C)cc3C(N)=O)c2C2CC2)n[nH]1` ?
Response: 340

Request: Which value of IC50 has been reported for `CN(c1nc(Nc2cc(C3CC3)[nH]n2)c(C2CC2)c(-c2cn(C)cn2)n1)c1c(F)cc(S(C)(=O)=O)cc1F` in the records?
Response: 3

Request: Endpoint output: IC50 of `Cc1cc(Nc2nc(N(C)c3c(F)cc(S(C)(=O)=O)cc3F)nc(-c3cc(CC#N)n(C)n3)c2C2CC2)n[nH]1` . Value?
Response: 4

Request: Given the compound `Cc1cc(Nc2nc(Nc3c(F)cc(S(C)(=O)=O)cc3F)nc(-c3cn(C)cn3)c2C2CC2)n[nH]1` , what is its reported IC50?
Response: 150

Request: // query IC50 value for entry `Cc1cc(Nc2nc(N(C)c3c(F)cc(S(C)(=O)=O)cc3F)nc(N3CCN(C)C(=O)C3)c2C2CC2)n[nH]1`
Response: 33

Request: # query: IC50 of entry Cc1cc(Nc2nc(N(C)c3ccc(S(C)(=O)=O)cc3F)nc(N3CCCC(S(C)(=O)=O)C3)c2C2CC2)n[nH]1 (stereo not drawn)
Response: 43

Request: May I ask what IC50 has been recorded for `COc1c(Nc2cc(C)[nH]n2)nc(N(C)c2ccc(CS(C)(=O)=O)cc2)nc1-c1cnn(C)c1` ?
Response: 2300

Request: So what does the record say about IC50 for `CN(c1nc(Nc2cc(C3CC3)[nH]n2)c(C2CC2)c(-c2ccnn2C2CC2)n1)c1c(F)cc(S(C)(=O)=O)cc1F` ?
Response: 14

Request: Would you kindly share the measured IC50 for `Cc1cc(Nc2nc(N(C)c3cc(F)c(S(C)(=O)=O)cc3F)nc(-c3cnn([C@H]4CC[C@H](O)CC4)c3)c2C2CC2)n[nH]1` ?
Response: 9

Request: Would you mind telling me what IC50 value was observed for `Cc1cc(Nc2nc(N(C)c3c(F)cc(C#N)cc3F)nc(-c3cn(C)cn3)c2C2CC2)n[nH]1` ?
Response: 24

Request: # lookup: IC50 of `Cc1cc(Nc2nc(N(C)c3c(F)cc(S(C)(=O)=O)cc3F)nc(-c3ccn(CCO)n3)c2C2CC2)n[nH]1`
Response: 4

Request: Looking for the measured IC50 of `CCN(c1nc(Nc2cc(C)[nH]n2)c(C2CC2)c(-c2cn(C)cn2)n1)c1cc(F)c(S(C)(=O)=O)cc1F` , can you help?
Response: 20

Request: Query (compound): `CN(c1nc(Nc2cc(C3CC3)[nH]n2)c(C2CC2)c(-c2cn(C)cn2)n1)c1cc(F)c(S(C)(=O)=O)cc1F` ; field requested: IC50
Response: 11
